Target: T1, Chryseobacterium sp-62563 deamidase polypeptide (second polypeptide, deamidase domain), wildtype (Chryseobacterium sp-62563)
T1 sequence: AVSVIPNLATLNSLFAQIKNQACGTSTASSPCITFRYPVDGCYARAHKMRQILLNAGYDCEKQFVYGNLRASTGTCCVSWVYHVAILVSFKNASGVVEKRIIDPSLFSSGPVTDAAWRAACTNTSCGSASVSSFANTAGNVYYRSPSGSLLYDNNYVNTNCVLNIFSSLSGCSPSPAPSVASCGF
Test: cell-based or functional assay
// reported Relative activity of maturated deamidase (% initial rate) per item
RECORDED METRIC: Relative activity of maturated deamidase (% initial rate)

[[record]]
binder = "Chryseobacterium sp-62563 propeptide K101P (protein) NQDPNLVAKESNETAMKDFGKTVPVGIEKEDGKFKISFMVTAQPYEIKDSKENAAYISMIKTAVENETPIHVFLKANTNEIAKVDKATDDDIRYFKSVFTPEVKEENRK"
numeric_value = 36

[[record]]
binder = "Chryseobacterium sp-62563 propeptide K101E (protein) NQDPNLVAKESNETAMKDFGKTVPVGIEKEDGKFKISFMVTAQPYEIKDSKENAAYISMIKTAVENETPIHVFLKANTNEIAKVDKATDDDIRYFKSVFTEEVKEENRK"
numeric_value = 45

